# ASSAY TARGET: MtInhA (Mycobacterium tuberculosis, UniProt P9WGR1)
# Construct: made in house
# Sequence (P9WGR1 whole entry, looked up): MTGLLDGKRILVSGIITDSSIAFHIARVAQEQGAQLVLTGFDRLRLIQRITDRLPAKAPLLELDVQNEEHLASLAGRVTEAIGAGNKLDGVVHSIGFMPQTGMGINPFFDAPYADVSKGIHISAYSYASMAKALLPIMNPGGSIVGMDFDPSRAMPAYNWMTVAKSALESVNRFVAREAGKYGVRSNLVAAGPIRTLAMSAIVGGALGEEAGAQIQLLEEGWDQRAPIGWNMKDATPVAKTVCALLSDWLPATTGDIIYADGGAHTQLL
# TEST DETAILS: MtInhA enzyme inhibition by steady-state kinetics (NADH oxidation at 340 nm)
# Type: biochemical
METRIC NAME: IC50 (µM)

> print(dat)
                                   compound                              assay.target   u  measured.value
1  Cc1ccccc1OCc1nc(-c2ccc(NC(=O)c3cccs3)cc2)no1 [Labio_16]  MtInhA (Mycobacterium tuberculosis, UniProt P9WGR1)  µM              24
2  CCOC(=O)c1ccc2nc(C)cc(Nc3ccc(N4CCCCC4)cc3)c2c1 [Labio_17]  MtInhA (Mycobacterium tuberculosis, UniProt P9WGR1)  µM              20
